Assign log10(TGI) to each entry below.
- Test system: HOP-92 NSCLC
- ASSAY PROCEDURE: NCI tumour cell line growth inhibition, 48 h
The base-10 logarithm of TGI, taken with TGI in µM, is what appears here.

[in] What value of log10(TGI) on HOP-92 NSCLC does CCN(CC)Cc1cc(Nc2c3ccccc3nc3c4ccccc4n(C)c23)ccc1O have?
[out] 1.28

[in] Please answer likewise for CCCSc1ccc2[nH]c(N3C(=O)/C(=C/c4cc(OC)c(OC)c(OC)c4)N=C3c3ccccc3)cc2c1
[out] 1.56

[in] Please answer likewise for C[C@@H](Oc1ccc2[nH]nc(/C=C/c3cnn(CCO)c3)c2c1)c1c(Cl)cncc1Cl
[out] -1.01

[in] Please answer likewise for CCCCCCCCCCCCCCCC(=O)OC(COC(C)=O)CO[P+](=O)O (centres undefined)
[out] 1.53

[in] Please answer likewise for O=C(Nc1cccc(O)c1)c1cccc(NC2=C(Cl)C(=O)N(Cc3ccccc3)C2=O)c1
[out] 1.47

[in] Please answer likewise for O=C(O)C1(Cc2ccc3c(c2)CCC3)Cc2ccccc2C1=O (centres undefined)
[out] 1.94

[in] Please answer likewise for COc1ccc(C(=O)N(C(=O)N2CCN(c3ccccc3)CC2)S(=O)(=O)c2ccccc2)cc1
[out] 1.86
